# ASSAY REMARKS: microbe, parasite or virus in culture
# RECORDED CONDITIONS: Mycobacterium tuberculosis, 96 h, read-out: pIC50 (converted)
Entries whose IC50 is below 200 µM take Criterion met; entries at or above 200 µM take Criterion not met.

CC(C)(C)OC(=O)c1ncccc1N    Criterion not met
Cc1nn2c(NCC(=O)NC3CC3)cc(-c3ccccc3)nc2c1C    Criterion met
COc1ncccc1CN(C)C(=O)c1ccccc1F    Criterion not met
Clc1cccc2nc(N3CCNCC3)oc12    Criterion not met
COCc1ccc(CNc2cnn(C(C)(C)C)c(=O)c2Cl)cc1    Criterion met

Problem: # check: IC50 < 200 µM for CN(Cc1ccc2c(c1)OCO2)C(=O)Cc1cccs1
Result: Criterion not met

Problem: Please indicate whether the reported IC50 of NCCc1cnn(-c2ccccc2)c1 is strictly below 200 µM.
Result: Criterion not met

Problem: Strictly below 200 µM: is that where IC50 of CC(Cn1cccn1)NCc1csc(-c2ccccc2F)n1 (stereo not drawn) sits?
Result: Criterion met

Problem: # check: IC50 < 200 µM for COc1cccc(S(=O)(=O)CCN2CCC(O)CC2)c1
Result: Criterion not met

Problem: Please check: IC50 for CN(C)C(=O)c1cc(-c2cccs2)on1 , strictly under 200 µM or not?
Result: Criterion not met

Problem: Dear reviewer, please state whether Cc1cnn(CCCNCc2csc(COc3ccccc3)n2)c1 has IC50 strictly beneath 200 µM.
Result: Criterion met

---

# ASSAY REMARKS: In vitro enzyme assay to detect hydrolysis of chlorophenol red-beta-D-[…] directly proportional to the number of Toxoplasma stably expressing beta-galactosidase
# Assay type: functional, organism-based, Toxoplasma gondii
# RECORDED CONDITIONS: Toxoplasma gondii
Each entry below carries its reported pIC50.
When answering, recall that pIC50 equals minus log10 of the concentration in mol/L, and write that number alone.

Some solved cases for reference:
Nc1cc(N2CCC(c3cc(Cc4ccccc4)n[nH]3)CC2)ccn1    5.31
CCCn1c(NCCc2ccccc2)nc2c(C)nn(C)c2c1=O    4.50
COc1ccccc1CNC(=O)C1=NN(c2ccc(C)cc2)C(=O)CN1    4.97
CCn1cc(-c2cc(C(F)(F)F)nc(NC3CCCC3)n2)c(C)n1    4.75
CSCCC1c2nc[nH]c2CCN1Cc1cc(Cl)ccc1O (stereo not drawn)    4.91

# next compound below
Problem: State its pIC50: NC(CC1CCCC1)c1ccc(Oc2ccccc2)cc1 (stereo not drawn)
Result: 5.28

---

# Test system: Plasmodium falciparum
# ASSAY REMARKS: Plasmodium falciparum sporozoite viability assay
# Type: functional, organism-based
READOUT NAME: pIC50
Answer as a number with no unit attached.

c1ccc(-c2nc(CN3CCc4c(ncn4C4CC4)C3)cs2)cc1    5.414
CN1CCOC(C(=O)Nc2ccc3c(c2)nc(C(C)(C)C)n3C)C1 (configuration not stated)    7.552
CN(C)CC(C)(O)CNC(=O)Nc1sc2ccccc2c1Cl (configuration not stated)    5.506
CC(C)(C)c1cn2nc(N3CCCC(Cn4cncn4)C3)sc2n1 (configuration not stated)    4.991

Problem: For the compound c1ccc2sc(CN3CCOC(Cn4cncn4)C3)nc2c1 (configuration not stated) , report pIC50.
Result: 6.123

Problem: Fill in pIC50 for record COc1ccc2cc(C3CN(C(=O)CN4CCCC4)CCO3)ccc2c1 (configuration not stated)
Result: 5.408

Problem: Fill in reported pIC50 for this entry: COc1ccc2cc(C3CN(C(=O)N(C)C)CCO3)ccc2c1 (configuration not stated)
Result: 7.993

Problem: Recall and state the measured pIC50 for CCN1CCN(Cc2coc(-c3cccc(F)c3)n2)CC1 .
Result: 6.19

Problem: Tell me pIC50 reported for Cn1cnc2c1CCN(Cc1csc(-c3ccccc3F)n1)C2
Result: 6.45

Problem: For the compound CC(C)(C)c1ncc(C(=O)NCCSc2ccccn2)c(O)n1 , report pIC50.
Result: 7.35

Problem: Return value of pIC50 for input CC/N=c1\nc(NCC)nc2n1C(O)(Nc1ccc(C)cc1C)CS2 (configuration not stated) , no commentary.
Result: 5.511

Problem: Give pIC50 for the following compound: COc1ccc(-c2ccc(C3CNCCO3)nc2)cc1.Cl (configuration not stated)
Result: 7.404

---

# TESTED TARGET: UniProtKB A4I591
# Sequence (A4I591 whole entry): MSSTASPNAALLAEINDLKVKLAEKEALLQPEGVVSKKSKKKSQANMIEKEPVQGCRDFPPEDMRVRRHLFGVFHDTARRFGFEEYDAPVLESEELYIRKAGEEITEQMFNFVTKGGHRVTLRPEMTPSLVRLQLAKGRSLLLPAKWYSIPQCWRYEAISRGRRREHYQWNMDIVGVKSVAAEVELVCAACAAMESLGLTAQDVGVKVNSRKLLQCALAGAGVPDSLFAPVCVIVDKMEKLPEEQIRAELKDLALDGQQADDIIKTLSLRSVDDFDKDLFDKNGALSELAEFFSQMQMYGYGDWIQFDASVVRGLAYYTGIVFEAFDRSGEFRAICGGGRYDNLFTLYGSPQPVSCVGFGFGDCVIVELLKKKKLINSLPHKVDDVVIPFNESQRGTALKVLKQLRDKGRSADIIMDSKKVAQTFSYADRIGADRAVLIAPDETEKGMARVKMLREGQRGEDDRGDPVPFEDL
# ASSAY REMARKS: Leishmania infantum Histidine tRNA synthetase (LdHisRS)
READOUT NAME: IC50

Cn1cc(NS(=O)(=O)c2ccc(F)c(F)c2)ccc1=O    > 100 µM
C[C@H](NS(C)(=O)=O)C(=O)NCc1cc(-c2ccco2)n[nH]1    > 100 µM

Problem: Identify the reported IC50 for the following entry. COc1cccc(-c2n[nH]c3c2CN(C(=O)c2cccc(=O)[nH]2)CC3)c1
Result: 12.9 µM

Problem: Supply reported IC50 belonging to this molecule: O=C(NC1CCCN(c2ccc(OC(F)F)cc2)C1)c1ccon1 (stereo unspecified)
Result: > 100 µM

Problem: For the molecule Cc1cc(CNc2ccc3nc(C)sc3c2)no1 , give its measured IC50 value.
Result: > 100 µM

Problem: Given Cn1cccc(NC(=O)NCc2cccc(CO)c2)c1=O , respond with its IC50.
Result: > 100 µM

---

# ASSAY REMARKS: microbe, parasite or virus in culture
# RECORDED CONDITIONS: Mycobacterium tuberculosis, 72 h, read-out: pIC50 (converted)
Please note: IC50 exactly at 100 µM is not met. Only values below 100 µM get met.

Reference set, count: 8
O=C(Nc1cccnc1)N1CCC(n2ccc(C(F)(F)F)n2)CC1    met
O=C(c1cc(C2CC2)on1)N1CCC(Oc2ncccc2Cl)CC1    met
Nc1nnc(SCC(=O)NCCc2cccc(Cl)c2)s1    not met
NCc1nc(-c2cccc(C(F)(F)F)c2)no1    not met
Cc1cc(C(=O)Nc2ccc3c(c2)CCCN3)on1    not met
Cc1nnc(SCCCNC(=O)c2cc(Cl)c[nH]2)s1    not met
COCc1nn(Cc2cccc3cccnc23)c(=O)o1    met
COC(=O)C1CC(c2ccccc2)=NO1 (centres undefined)    not met

Problem: State whether 100 µM exceeds IC50 recorded for COCCN(C)S(=O)(=O)c1cc(F)c(C)cc1F .
Result: not met

Problem: Does this compound meet the criterion IC50 < 100 µM? CCCn1nnnc1NCc1ccsc1
Result: not met

Problem: Does the reported IC50 of the following compound sit strictly below 100 µM? O=C(Cc1ccc2c(c1)CCCC2)Nc1cccnc1N1CCSCC1
Result: met

Problem: Field: below-cutoff. Rule: recorded IC50 strictly less than 100 µM. Subject: Cc1ccc(C2CCCN2CCS(C)(=O)=O)s1 (centres undefined)
Result: not met

Problem: Lab log: compare recorded IC50 with 100 µM; is it strictly lower for COc1ncccc1C(=O)NCCc1cccs1 ?
Result: not met

Problem: Quick check: does COCCNC(=O)Nc1ccc(OC(F)F)c(F)c1 have IC50 under 100 µM?
Result: not met

Problem: Lab log: compare recorded IC50 with 100 µM; is it strictly lower for N#Cc1cccnc1N1CCOC(c2nccs2)C1 (centres undefined) ?
Result: not met

Problem: Please state whether IC50 is below 100 µM for CC(C)CCn1ccc(NC(=O)C2(O)CCC2)n1
Result: not met

---

# ASSAY REMARKS: microbe, parasite or virus in culture
# RECORDED CONDITIONS: Mycobacterium tuberculosis, 72 h, read-out: pIC50 (converted)
READOUT NAME: IC50 (µM)
Quick note: give the figure in µM, leave out the unit.

Problem: Kindly indicate its recorded IC50. Item: OCCN1CCN(c2nc(-c3ccccc3)no2)CC1
Result: 83.7

---

# ASSAY REMARKS: In vitro enzyme assay to detect hydrolysis of chlorophenol red-beta-D-[…] directly proportional to the number of Toxoplasma stably expressing beta-galactosidase
# Format: functional, organism-based, Toxoplasma gondii
# RECORDED CONDITIONS: Toxoplasma gondii
READOUT NAME: IC50 (µM)
Write the value in µM as a bare number.

// below: answered compounds
O=C(c1ccc(COc2ccc(Cl)cc2)o1)N1N=CCC1(O)C(F)(F)F (stereo unspecified)    3.1
Cc1[nH]/c(=N\C(=O)c2csc(NCC(C)C)n2)sc1C    4.62
Cc1cccc(OCCc2noc(C3CNC3)n2)c1    8.49
CS(=O)(=O)c1ccc(-c2cc(O)cc(CCC3CCCCN3)c2)cc1 (stereo unspecified)    16.6

// switching to the query compound
Problem: Indicate the recorded IC50 value for this compound: Cc1noc(NC(=O)c2ccc(Br)cc2)n1
Result: 9.76

---

Parameter: pIC50. Scope: all listed entries.
# ASSAY REMARKS: In vitro enzyme assay to detect hydrolysis of chlorophenol red-beta-D-[…] directly proportional to the number of Toxoplasma stably expressing beta-galactosidase
# Format: functional, organism-based, Toxoplasma gondii
# RECORDED CONDITIONS: Toxoplasma gondii
pIC50: −log10 of the molar value.

Answered cases to consult:
NCCc1ccc(-n2cccn2)cc1    < 4.30
c1csc(-c2noc(C3CNC3)n2)c1    5.53
CCn1cc(CN(C)S(=O)(=O)c2ccccc2)cn1    < 4.30
NCc1ccnc(N2CCCC2)n1    < 4.30
N#Cc1c(Cl)nsc1NCc1cccnc1OC1CCCC1    5.17

Problem: State its pIC50 for this compound: CSc1ccccc1NCC(=O)NC1CC1
Result: < 4.30

Problem: Tell me pIC50 reported for Cc1c(-c2ccccc2)nc2c(c(C)c(C)n2CCN(C)C)c1N
Result: 4.81
